The values you see were collected from patent US20200055948A1.

# System: shed/soluble BCMA
# PROTOCOL DESCRIPTION: GSI inhibition of shed/soluble BCMA (sBCMA), ELISA of supernatants after 72 hours, NCI-H929, MM1S, U266B1 (Example 2, Table 30, FIG. 3)
# Type: cell-based, human
# TEST SETTINGS: Homo sapiens; U266B1 cells, 72 hours, ELISA of supernatants
Listed below: EC50 values for each entry.
Write down the numeric answer in µM and omit the unit.

Observe how each entry below is paired with its result.
# MOLECULAR STRING, ASSAYED TARGET, UNIT STRING, MEASURED NUMBER
records = [
    ("CCC[C@H](N[C@H]1CCc2cc(F)cc(F)c2C1)C(=O)Nc1cn(C(C)(C)CNCC(C)(C)C)cn1", "shed/soluble BCMA", "µM", 0.0672),
    ("C[C@H](NC(=O)[C@@H](O)c1cc(F)cc(F)c1)C(=O)N[C@@H]1C(=O)N(C)c2ccccc2-c2ccccc21", "shed/soluble BCMA", "µM", 0.0001),
    ("NC(=O)[C@@H](CCC(F)(F)F)N(Cc1ccc(-c2ncon2)cc1F)S(=O)(=O)c1ccc(Cl)cc1", "shed/soluble BCMA", "µM", 0.0298),
    ("C[C@H](NC(=O)Cc1cc(F)cc(F)c1)C(=O)N[C@H](C(=O)OC(C)(C)C)c1ccccc1", "shed/soluble BCMA", "µM", 0.459),
    ("CC(C)[C@H](O)C(=O)N[C@@H](C)C(=O)N[C@@H]1C(=O)N(C)CCc2ccccc21", "shed/soluble BCMA", "µM", 0.236),
    ("O=C(O)CC[C@H]1CC[C@@](c2cc(F)ccc2F)(S(=O)(=O)c2ccc(Cl)cc2)CC1", "shed/soluble BCMA", "µM", 1.06),
    ("O=S(=O)(N[C@@H](CO)C(C(F)(F)F)C(F)(F)F)c1ccc(Cl)s1", "shed/soluble BCMA", "µM", 0.583),
]

Now consider the entry below.
Task: So what does the record say about EC50 for CC(C)(C(=O)NCC(F)(F)C(F)(F)F)C(=O)N[C@@H]1C(=O)Nc2ccccc2-c2ccccc21 ?
Output: 0.0062

###

# Tested on: membrane BCMA expression
# PROTOCOL DESCRIPTION: GSI enhancement of membrane BCMA (mBCMA) expression, flow cytometry after 72 hours, NCI-H929, MM1S, U266B1 (Example 2, Table 30, FIG. 3)
# Type: cell-based
# TEST SETTINGS: Homo sapiens, NCI-H929, H929 cells
RECORDED METRIC: pEC50
# pEC50: negative log10 of molar concentration; output just the value

Observe how each entry below is paired with its result.
# MOLECULAR STRING, pEC50
records = [
    ("NC(=O)[C@@H](CCC(F)(F)F)N(Cc1ccc(-c2ncon2)cc1F)S(=O)(=O)c1ccc(Cl)cc1", 8.44),
    ("C[C@H](NC(=O)[C@@H](O)c1cc(F)cc(F)c1)C(=O)N[C@@H]1C(=O)N(C)c2ccccc2-c2ccccc21", 10.00),
    ("O=C(O)CC[C@H]1CC[C@@](c2cc(F)ccc2F)(S(=O)(=O)c2ccc(Cl)cc2)CC1", 7.16),
]

Now consider the entry below.
Task: So what does the record say about pEC50 for O=S(=O)(N[C@@H](CO)C(C(F)(F)F)C(F)(F)F)c1ccc(Cl)s1 ?
Output: 7.86
